Values compiled from the supplement of paper PMC9732359.

Overview of recorded protein stability index for various sequences
# test: protein stability index of a GFP-peptide fusion (yeast GPS) (PSI 1-4); higher = more stable; sorted into four equal gates, so the index is relative within each strain
# test-settings: pdr5∆

# sequence-code, protein stability index
rows = [
    ("VQPTIGQLPQLPKLNLP [SNF5]", 2.75),
    ("RYQIMLPEQLKSGKFCS [SNM1]", 2.08),
    ("TLASLIRYNSVEIQEVP [RPC82]", 2.59),
    ("APQLFPYGSFHQQQLQQ [DSN1]", 2.84),
    ("AEKSYLYDSLASTPSIR [RRP42]", 2.33),
    ("TRNSLGNVIQFIYGEDG [RPO21]", 2.92),
    ("YGLIRGLKFASFIFQYY [PRP8]", 2.52),
    ("IPDMSKNVELGWKPLRY [SNU114]", 3.23),
    ("GPKKNVFYAPNVKNYST [RPC34]", 2.56),
    ("LTNQLYKNHELLKLERK [SNF2]", 3.12),
    ("RALFRQLKRWYWQFNGV [RMP1]", 1.24),
    ("LQPIFKGEEAKLDSKKT [SSN3]", 3.11),
    ("IYNGKAFNQVEIRPEML [RPS15]", 3.04),
    ("SSEQDYSTLKELLEYSD [YCG1]", 2.75),
    ("SLTKDKSIRKDTVEEKK [SIR4]", 3.23),
]

---

# test: protein stability index of a GFP-peptide fusion (yeast GPS) (PSI 1-4); higher = more stable; sorted into four equal gates, so the index is relative within each strain
# test-settings: doa10∆

# sequence-code, protein stability index
data = [
    ("KTITSGLKYALATGNWG [RPB2]", 2.32),
    ("VDNENNKPAIKEDSTIQ [SWI3]", 2.84),
    ("QPQHPHYVSTSKISQMA [YLR018C/POM34]", 1.71),
    ("LNKDSTNEFVGSPSLTS [NUT1]", 2.96),
    ("QSSEDVITIKSRIRVKI [RPB7]", 2.4),
    ("EQTTGGNNKDLKNTMQY [RPB4]", 3.24),
    ("AQDSLTVTIASSLNLED [RPB8]", 1.65),
]

---

# test: protein stability index of a GFP-peptide fusion (yeast GPS) (PSI 1-4); higher = more stable; sorted into four equal gates, so the index is relative within each strain
# test-settings: san1∆

# sequence-code, protein stability index
data = [
    ("PNALKPLSESLRLVDDD [RRP6]", 2.82),
    ("TKPSETPATIVKKPTFT [YOR098C/NUP1]", 3.09),
    ("RSPEEIRRTFNIVNDFT [SKP1]", 1.53),
    ("LKLCLGDHSSVPVALKG [YMR129W/POM152]", 2.74),
    ("RKWAARAASAKIESSVE [RPS8A]", 2.74),
    ("ERLAKVNEMNDQLAQEL [NNF1]", 3.28),
    ("GSTFKVNQEFIFEAISL [YJL039C/NUP192]", 1.43),
    ("LLIRKLPFQRLVREIAQ [HHT1]", 1.44),
    ("KNDKLIKIEDFVDDMLR [SNF5]", 1.98),
    ("GKKASLNVGNVLPLGSV [RPL2A]", 2.51),
    ("NRQQKKRRFDPSSSDSN [RRP6]", 3.05),
    ("EAAAVRDLSEASVYPEY [RPS26A]", 2.65),
    ("AILVPMTVNDQPIEKNG [YJR042W/NUP85]", 2.84),
    ("TGHPKGAAGAWMMNGAL [FAS2]", 1.43),
]
